System: EpiAirway™ Cell Membrane (mucosal epithelial cell layer)
procedure.text: Transepithelial electrical resistance (TER), EpiAirway in vitro epithelial tissue model
Format: cell-based
conditions.used: Table 8, amino acid substitutions; relative to PN159
So basically: is Relative TER Decrease under 0.7? Then class 1. Not under? Then class 0.

[[record]]
substance = "NH2-KLAWKLALKALKAALKLA-amide (H-KLAWKLALKALKAALKLA-NH2) [PN0425, Single Tryptophan]"
answer_label = "class 0"

[[record]]
substance = "NH2-LKTLATALTKLAKTLTTL-amide (H-LKTLATALTKLAKTLTTL-NH2) [PN443, Threonine]"
answer_label = "class 1"

[[record]]
substance = "NH2-LKLLKKLLKKLLKLL-amide (H-LKLLKKLLKKLLKLL-NH2) [PN406, Leucine and Lysine rich]"
answer_label = "class 0"

[[record]]
substance = "NH2-RLAWRLALRALRAALRLA-amide (H-RLAWRLALRALRAALRLA-NH2) [PN395, Argenine and Single Tryptophan]"
answer_label = "class 0"

[[record]]
substance = "H-KLALKLALKLNLKAALKLA-NH2 [PN448]"
answer_label = "class 1"

[[record]]
substance = "NH2-KLAWKLALKALKAAWKLA-amide (H-KLAWKLALKALKAAWKLA-NH2) [PN0427, Two Tryptophan]"
answer_label = "class 0"

